# SYSTEM TESTED: Tryptophanase (Escherichia coli (strain K12))
# Sequence (P0A853 whole entry): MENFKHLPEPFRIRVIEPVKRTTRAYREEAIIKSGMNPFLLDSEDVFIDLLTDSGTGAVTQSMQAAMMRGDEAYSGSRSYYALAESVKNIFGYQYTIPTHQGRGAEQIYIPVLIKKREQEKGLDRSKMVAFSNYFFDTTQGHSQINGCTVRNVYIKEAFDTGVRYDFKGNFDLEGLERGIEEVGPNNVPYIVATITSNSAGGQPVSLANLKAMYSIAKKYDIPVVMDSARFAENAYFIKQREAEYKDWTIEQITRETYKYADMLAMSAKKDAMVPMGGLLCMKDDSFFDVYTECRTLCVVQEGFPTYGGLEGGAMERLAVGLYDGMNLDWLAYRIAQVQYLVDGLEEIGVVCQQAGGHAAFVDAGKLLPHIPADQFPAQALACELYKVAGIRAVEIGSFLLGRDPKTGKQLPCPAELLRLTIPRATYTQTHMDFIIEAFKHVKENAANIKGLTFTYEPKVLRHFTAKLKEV
# TEST PROTOCOL: Enzyme Inhibition Assay
# APPLIED CONDITIONS: pH 7.8; 25 °C
pKi: −log10 of the molar value.
ENDPOINT: pKi

// query Give its pKi value. Item: CC(=O)NC(Cc1c[nH]c2ccccc12)C(=O)O (configuration not stated) [N-acetyl tryptophan]
// result 4.32

// query What about this compound? CCOC(=O)C(N)Cc1c[nH]c2ccccc12 (configuration not stated)
// result 4.28
